Assay: self-splicing fitness, log relative to wild type (ln ratio); higher = more splicing; Tetrahymena group I intron in knt gene, E. coli kanamycin selection, DiMSum; sequences stand for … in CUCUCU…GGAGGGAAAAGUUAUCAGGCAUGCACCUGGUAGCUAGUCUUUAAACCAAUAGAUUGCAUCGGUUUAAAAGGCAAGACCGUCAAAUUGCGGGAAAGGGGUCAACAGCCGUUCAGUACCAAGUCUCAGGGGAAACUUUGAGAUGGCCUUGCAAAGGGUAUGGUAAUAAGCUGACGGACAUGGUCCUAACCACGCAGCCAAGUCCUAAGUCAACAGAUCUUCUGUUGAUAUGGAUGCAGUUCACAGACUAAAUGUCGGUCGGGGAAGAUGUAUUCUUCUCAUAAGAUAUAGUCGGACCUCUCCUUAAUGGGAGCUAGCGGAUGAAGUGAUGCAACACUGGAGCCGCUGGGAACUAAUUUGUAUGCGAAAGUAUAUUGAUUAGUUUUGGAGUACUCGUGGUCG;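 also: selection with 25 µg/mL kanamycin versus none on LB agar overnight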
Details: 37 °C
Quick rule: self-splicing fitness (ln) of at least -2 means TRUE, below that means FALSE.

Biopolymer Sequence	Discrete Label
CCAUAGCAAUAUUACGUGGC	FALSE
CACGAGCAAUAUUACGAUUG	TRUE
UGAUAGCAAUAUUACGGAGG	TRUE
AACAAGCAAUAUUACGGGGU	FALSE
UUCCAGCAAUAUUACGACGA	TRUE
AUUAAGCAAUAUUACGAUCU	TRUE

Asked: Form field: self-splicing fitness (ln) at least -2? Entry: CGCGAGCAAUAUUACGGGAA
Given back: FALSE

====

Field: self-splicing fitness (ln). Provide a value for each of the sequences that follow.
Assay: self-splicing fitness, log relative to wild type (ln ratio); higher = more splicing; Tetrahymena group I intron in knt gene, E. coli kanamycin selection, DiMSum; sequences stand for … in CUCUCU…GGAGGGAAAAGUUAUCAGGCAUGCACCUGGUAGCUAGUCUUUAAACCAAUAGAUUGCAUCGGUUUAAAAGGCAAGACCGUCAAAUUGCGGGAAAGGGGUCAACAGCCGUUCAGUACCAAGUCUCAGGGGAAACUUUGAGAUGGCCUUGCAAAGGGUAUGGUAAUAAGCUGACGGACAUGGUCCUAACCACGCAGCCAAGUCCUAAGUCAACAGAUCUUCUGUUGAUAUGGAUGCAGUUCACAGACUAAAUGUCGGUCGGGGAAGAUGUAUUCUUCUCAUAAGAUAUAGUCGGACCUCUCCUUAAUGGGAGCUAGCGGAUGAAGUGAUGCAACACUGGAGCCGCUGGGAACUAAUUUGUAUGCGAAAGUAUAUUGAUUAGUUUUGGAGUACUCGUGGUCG
Conditions: 30 °C
Give bare numbers.

Worked cases, answers included:
Biopolymer Sequence	Readout Number
UACCAGCAAUAUUACGACAG	-1.2
UCCCAGCAAUAUUACGACUA	-2.12
AAACAGCAAUAUUACGAAGU	-3.41

Report self-splicing fitness (ln) for every entry below.
1. CUCGAGCAAUAUUACGCGCG
2. CCGCAGCAAUAUUACGAAAU
3. AGCAAGCAAUAUUACGCGUA

Given back:
-2.81
-3.66
-1.83

Give self-splicing fitness (ln) for each of the items listed below.
1. AGCCAGCAAUAUUACGUUUG
2. AUACAGCAAUAUUACGACCC

Given back:
1: -3.47; 2: -1.1
